Here the recorded Kd is given for each entry.
- tested.target: PD-L1-streptavidin (UniProt Q9NZQ7 19-238)
- Sequence (Q9NZQ7 19-238): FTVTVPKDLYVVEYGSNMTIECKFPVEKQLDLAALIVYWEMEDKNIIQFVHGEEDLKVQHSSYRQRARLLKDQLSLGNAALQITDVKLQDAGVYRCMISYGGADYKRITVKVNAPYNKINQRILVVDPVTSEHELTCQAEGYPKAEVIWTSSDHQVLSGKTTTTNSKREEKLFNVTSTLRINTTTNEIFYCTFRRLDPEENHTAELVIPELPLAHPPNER
- experimental.details: BLI (BLItz)
Kindly answer with a numeric value in nM, unit omitted.

binder	Kd, nM
JY-Q12-4 (protein) LDSPDRPLDPPTISPALLVVTEGDQATFTCSFSQTSKSFVLNWYRISPSQQTDKLAAFPEDRSQPGQDTRFRVTQLPNGRDFHMSVVRARRNDSGTYLCVAISLAPKVQIKESLRAELRVTERRAEVPTAHPSPSPRPACQFQ	17.3
glycosylated PD-1 variant JY_Q12-2 (Q34N) (receptor, sugar chain at N34 (N-linked glycosylation site restored, expressed in Expi293F)) LDSPDRPLDPPTISPALLVVTEGDQATFTCSFSNTSKSFVLNWYRISPSQQTDKLAAFPEDRSQPGQDTRFRVTQLPNGRDFHMSVVRARRQDSGTYLCVAISLAPKVQIKESLRAELRVTERRAEVPTAHPSPSPRPACQFQ	0.899
aglycosylated PD-1 variant Q12 (JY_Q12), soluble His-tagged protein (receptor) LDSPDRPLDPPTISPALLVVTEGDQATFTCSFSQTSKSFVLNWYRISPSQQTDKLAAFPEDRSQPGQDTRFRVTQLPNGRDFHMSVVRARRQDSGTYLCVAISLAPKVQIKESLRAELRVTERRAEVPTAHPSPSPRPACQFQ	11

[in] Given the entry glycosylated PD-1 variant JY_Q12-3 (Q50N) (receptor, sugar chain at N50 (N-linked glycosylation site restored, expressed in Expi293F)) LDSPDRPLDPPTISPALLVVTEGDQATFTCSFSQTSKSFVLNWYRISPSNQTDKLAAFPEDRSQPGQDTRFRVTQLPNGRDFHMSVVRARRQDSGTYLCVAISLAPKVQIKESLRAELRVTERRAEVPTAHPSPSPRPACQFQ , report its measured Kd.
[out] 3.24

[in] Now consider glycosylated PD-1 variant JY_Q12-1 (Q25N) (receptor, sugar chain at N25 (N-linked glycosylation site restored, expressed in Expi293F)) LDSPDRPLDPPTISPALLVVTEGDNATFTCSFSQTSKSFVLNWYRISPSQQTDKLAAFPEDRSQPGQDTRFRVTQLPNGRDFHMSVVRARRQDSGTYLCVAISLAPKVQIKESLRAELRVTERRAEVPTAHPSPSPRPACQFQ .
[out] 7.38
